Listed here: items and their measured deltaH.
system: Quadruplex DNA; test: Binding affinity to c-myc G4 DNA 5'-TGAGGGTGGGGAGGGTGGGGAA-3' (unknown origin) assessed as change in enthalpy measured under molecular crowding conditions by isothermal titration calorimetry; assay type: nucleic-acid assay; details: Homo sapiens

# Compound String, Tested On, Unit Tag, deltaH
rows = [
    ("CN1CCCNC(=O)CCCC(=O)NCCCN(C)CCCN2C(=O)c3ccc4c5c(ccc(c35)C2=O)C(=O)N(CCC1)C4=O", "Quadruplex DNA", "kcal/mol", -20),
    ("CN1CCCNC(=O)c2cccc(c2)C(=O)NCCCN(C)CCCN2C(=O)c3ccc4c5c(ccc(c35)C2=O)C(=O)N(CCC1)C4=O", "Quadruplex DNA", "kcal/mol", -53),
    ("CN1CCCNC(=O)CC2(CCCCC2)CC(=O)NCCCN(C)CCCN2C(=O)c3ccc4c5c(ccc(c35)C2=O)C(=O)N(CCC1)C4=O", "Quadruplex DNA", "kcal/mol", -20),
    ("CN1CCCNC(=O)CC(C)(C)CC(=O)NCCCN(C)CCCN2C(=O)c3ccc4c5c(ccc(c35)C2=O)C(=O)N(CCC1)C4=O", "Quadruplex DNA", "kcal/mol", -48),
]

---

test system: Quadruplex DNA; assay: Binding affinity to TA-core G4 DNA 5'-TAGGGTTAGGGTTAGGGTTAGGG-3' (unknown origin) assessed as association constant at equilibrium measured under molecular crowding conditions by isothermal titration calorimetry; format: nucleic-acid assay; settings: Homo sapiens
Listed here: items and their measured Ka.
Measurement Kind: Ka (M⁻¹)

# Compound String, Unit Tag, Value Reported
rows = [
    ("CN1CCCNC(=O)CC2(CCCCC2)CC(=O)NCCCN(C)CCCN2C(=O)c3ccc4c5c(ccc(c35)C2=O)C(=O)N(CCC1)C4=O", "M⁻¹", 600000),
    ("CN1CCCNC(=O)CC(C)(C)CC(=O)NCCCN(C)CCCN2C(=O)c3ccc4c5c(ccc(c35)C2=O)C(=O)N(CCC1)C4=O", "M⁻¹", 700000),
    ("CN1CCCNC(=O)CCCC(=O)NCCCN(C)CCCN2C(=O)c3ccc4c5c(ccc(c35)C2=O)C(=O)N(CCC1)C4=O", "M⁻¹", "1.9e+06"),
    ("CN1CCCNC(=O)c2cccc(c2)C(=O)NCCCN(C)CCCN2C(=O)c3ccc4c5c(ccc(c35)C2=O)C(=O)N(CCC1)C4=O", "M⁻¹", 700000),
]

---

system: Quadruplex DNA; assay: Binding affinity to c-myc G4 DNA 5'-TGAGGGTGGGGAGGGTGGGGAA-3' (unknown origin) assessed as association constant at equilibrium measured under molecular crowding conditions by isothermal titration calorimetry; assay type: nucleic-acid assay; conditions: Homo sapiens
Listed here: items and their measured Ka.

# Compound String, Unit Tag, Ka
measured = [
    ("CN1CCCNC(=O)CCCC(=O)NCCCN(C)CCCN2C(=O)c3ccc4c5c(ccc(c35)C2=O)C(=O)N(CCC1)C4=O", "M⁻¹", "1.6e+06"),
    ("CN1CCCNC(=O)c2cccc(c2)C(=O)NCCCN(C)CCCN2C(=O)c3ccc4c5c(ccc(c35)C2=O)C(=O)N(CCC1)C4=O", "M⁻¹", 800000),
    ("CN1CCCNC(=O)CC(C)(C)CC(=O)NCCCN(C)CCCN2C(=O)c3ccc4c5c(ccc(c35)C2=O)C(=O)N(CCC1)C4=O", "M⁻¹", 400000),
    ("CN1CCCNC(=O)CC2(CCCCC2)CC(=O)NCCCN(C)CCCN2C(=O)c3ccc4c5c(ccc(c35)C2=O)C(=O)N(CCC1)C4=O", "M⁻¹", 700000),
]

---

Listed here: items and their measured deltaH.
system: Quadruplex DNA; experiment: Binding affinity to c-myc G4 DNA 5'-TGAGGGTGGGGAGGGTGGGGAA-3' (unknown origin) assessed as change in enthalpy measured under dilution conditions by isothermal titration calorimetry; type: nucleic-acid assay; settings: Homo sapiens
Measurement Kind: deltaH (kcal/mol)

# Compound String, Unit Tag, Value Reported
data = [
    ("CN1CCCNC(=O)CC2(CCCCC2)CC(=O)NCCCN(C)CCCN2C(=O)c3ccc4c5c(ccc(c35)C2=O)C(=O)N(CCC1)C4=O", "kcal/mol", -14),
    ("CN1CCCNC(=O)CCCC(=O)NCCCN(C)CCCN2C(=O)c3ccc4c5c(ccc(c35)C2=O)C(=O)N(CCC1)C4=O", "kcal/mol", -11),
    ("CN1CCCNC(=O)CC(C)(C)CC(=O)NCCCN(C)CCCN2C(=O)c3ccc4c5c(ccc(c35)C2=O)C(=O)N(CCC1)C4=O", "kcal/mol", -11),
    ("CN1CCCNC(=O)c2cccc(c2)C(=O)NCCCN(C)CCCN2C(=O)c3ccc4c5c(ccc(c35)C2=O)C(=O)N(CCC1)C4=O", "kcal/mol", -10),
]

---

test system: Quadruplex DNA; assay: Binding affinity to c-myc G4 DNA 5'-TGAGGGTGGGGAGGGTGGGGAA-3' (unknown origin) assessed as change in entropy measured under dilution conditions by isothermal titration calorimetry; format: nucleic-acid assay; settings: Homo sapiens

# Compound String, Unit Tag, -TdeltaS
measured = [
    ("CN1CCCNC(=O)c2cccc(c2)C(=O)NCCCN(C)CCCN2C(=O)c3ccc4c5c(ccc(c35)C2=O)C(=O)N(CCC1)C4=O", "kcal/mol", 1.3),
    ("CN1CCCNC(=O)CCCC(=O)NCCCN(C)CCCN2C(=O)c3ccc4c5c(ccc(c35)C2=O)C(=O)N(CCC1)C4=O", "kcal/mol", 2.9),
    ("CN1CCCNC(=O)CC2(CCCCC2)CC(=O)NCCCN(C)CCCN2C(=O)c3ccc4c5c(ccc(c35)C2=O)C(=O)N(CCC1)C4=O", "kcal/mol", 4.7),
    ("CN1CCCNC(=O)CC(C)(C)CC(=O)NCCCN(C)CCCN2C(=O)c3ccc4c5c(ccc(c35)C2=O)C(=O)N(CCC1)C4=O", "kcal/mol", 2.3),
]

---

tested on: Quadruplex DNA; test: Binding affinity to TA-core G4 DNA 5'-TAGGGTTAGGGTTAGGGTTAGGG-3' (unknown origin) assessed as association constant at equilibrium measured under dilution conditions by isothermal titration calorimetry; format: nucleic-acid assay; settings: Homo sapiens
Listed here: items and their measured Ka.
Measurement Kind: Ka (M⁻¹)

# Compound String, Tested On, Measurement Kind, Value Reported
measured = [
    ("CN1CCCNC(=O)CCCC(=O)NCCCN(C)CCCN2C(=O)c3ccc4c5c(ccc(c35)C2=O)C(=O)N(CCC1)C4=O", "Quadruplex DNA", "Ka", "3.4e+06"),
    ("CN1CCCNC(=O)c2cccc(c2)C(=O)NCCCN(C)CCCN2C(=O)c3ccc4c5c(ccc(c35)C2=O)C(=O)N(CCC1)C4=O", "Quadruplex DNA", "Ka", "2.2e+06"),
    ("CN1CCCNC(=O)CC2(CCCCC2)CC(=O)NCCCN(C)CCCN2C(=O)c3ccc4c5c(ccc(c35)C2=O)C(=O)N(CCC1)C4=O", "Quadruplex DNA", "Ka", "1.5e+06"),
    ("CN1CCCNC(=O)CC(C)(C)CC(=O)NCCCN(C)CCCN2C(=O)c3ccc4c5c(ccc(c35)C2=O)C(=O)N(CCC1)C4=O", "Quadruplex DNA", "Ka", "1.7e+06"),
]
